The origin of these recorded values is PubChem BioAssay (NCI).

Test system: SK-MEL-28 melanoma
Assay: NCI-60 one-dose screen, 48 h
Details: 10 µM unless noted
About 83,000 compounds went through this panel and 20% of them were active in at least one assay; those are over-represented in the sample as a whole. The source made the active and inactive calls. How the source made its calls: active means growth percent below 10; inactive means the rest.
Outcomes: y = active, n = inactive

1. O=C(Nc1ccccc1O)c1ccc(CNc2ccnc(C(F)(F)F)c2)cc1 : n
2. Cn1cc(-c2csc(-c3cn(C)c4ccccc34)n2)c2cnccc21 : y
3. CSc1ccc2c3c(n(C[C@H](O)CO)c(=O)c2c1)-c1ccccc1C3=O : n
4. Cc1cccc(N=Nc2cccc(C)c2)c1 : n
5. CN(C)CCCn1c2c(c3ccncc3c1=O)C(=O)c1ccccc1-2 : y
6. Oc1nc(NCc2ccccc2)sc1/C=C1\C=Nc2ncccc21 : n
7. O=S(O)c1cc(Cl)cc(Cl)c1OCc1ccccc1 : n
8. COc1ccc(NC(=O)c2ccc(Nc3ncnc4c3cnn4-c3cccc(F)c3)cc2)cc1 : n
9. COC(=O)c1c(C)nc(C)c2c1C(=O)C=C(NCc1ccccc1)C2=O : n
10. COc1cc(/C=C2\C(=O)N(CCCOc3cc(O)c4c(=O)cc(-c5ccccc5)oc4c3)c3ccccc32)cc(OC)c1O : n
